Ki: recorded values
target: Tyrosine-protein kinase ITK/TSK (Homo sapiens); experiment: Inhibition of recombinant human N-terminal His6-tagged ITK (352 to 617 residues) expressed in baculovirus infected Sf21 insect cells using STK substrate by HTRF assay
Sequence (Q08881 whole entry, the tested form may be a part): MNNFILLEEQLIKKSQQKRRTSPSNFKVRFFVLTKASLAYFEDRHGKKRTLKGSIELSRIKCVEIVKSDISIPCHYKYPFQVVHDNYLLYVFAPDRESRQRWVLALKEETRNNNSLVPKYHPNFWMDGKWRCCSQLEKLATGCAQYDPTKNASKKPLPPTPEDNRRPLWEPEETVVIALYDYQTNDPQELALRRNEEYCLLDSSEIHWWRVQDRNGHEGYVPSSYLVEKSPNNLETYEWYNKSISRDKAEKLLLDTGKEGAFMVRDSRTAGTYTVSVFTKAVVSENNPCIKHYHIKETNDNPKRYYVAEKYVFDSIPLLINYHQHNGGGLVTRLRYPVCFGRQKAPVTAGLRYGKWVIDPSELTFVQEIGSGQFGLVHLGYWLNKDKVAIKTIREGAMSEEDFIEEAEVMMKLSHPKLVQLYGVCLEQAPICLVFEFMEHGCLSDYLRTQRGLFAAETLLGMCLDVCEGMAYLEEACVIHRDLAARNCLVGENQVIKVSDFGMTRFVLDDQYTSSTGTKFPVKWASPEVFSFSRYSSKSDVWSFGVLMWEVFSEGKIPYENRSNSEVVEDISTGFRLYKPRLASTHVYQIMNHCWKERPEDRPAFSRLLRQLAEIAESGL
measurement label: Ki (nM)

chemical smiles	assayed system	measurement label	reported
C=CC(=O)N1CCC(Oc2nc(Nc3ccc(N4CCOCC4)cc3)nc3[nH]cc(-c4cncc(NC)n4)c23)CC1	Tyrosine-protein kinase ITK/TSK (Homo sapiens)	Ki	6.3
C=CC(=O)N1CCC[C@@H](Oc2nc(Nc3ccc(N4CCOCC4)cc3)nc3[nH]cc(-c4cncc(NC)n4)c23)C1	Tyrosine-protein kinase ITK/TSK (Homo sapiens)	Ki	5.8
C=CC(=O)N1CCC[C@@H](Oc2nc(Nc3ccc(N4CCN(C(C)=O)CC4)cc3)nc3[nH]cc(-c4cncc(NC)n4)c23)C1	Tyrosine-protein kinase ITK/TSK (Homo sapiens)	Ki	33.7

* * *

target: Epidermal growth factor receptor (Homo sapiens, UniProt P00533); assay: Inhibition of recombinant human N-terminal GST-tagged EGFR kinase domain (696 to end residues) expressed in baculovirus infected Sf21 insect cells using STK as substrate by HTRF assay
Sequence (P00533 whole entry, the tested form may be a part): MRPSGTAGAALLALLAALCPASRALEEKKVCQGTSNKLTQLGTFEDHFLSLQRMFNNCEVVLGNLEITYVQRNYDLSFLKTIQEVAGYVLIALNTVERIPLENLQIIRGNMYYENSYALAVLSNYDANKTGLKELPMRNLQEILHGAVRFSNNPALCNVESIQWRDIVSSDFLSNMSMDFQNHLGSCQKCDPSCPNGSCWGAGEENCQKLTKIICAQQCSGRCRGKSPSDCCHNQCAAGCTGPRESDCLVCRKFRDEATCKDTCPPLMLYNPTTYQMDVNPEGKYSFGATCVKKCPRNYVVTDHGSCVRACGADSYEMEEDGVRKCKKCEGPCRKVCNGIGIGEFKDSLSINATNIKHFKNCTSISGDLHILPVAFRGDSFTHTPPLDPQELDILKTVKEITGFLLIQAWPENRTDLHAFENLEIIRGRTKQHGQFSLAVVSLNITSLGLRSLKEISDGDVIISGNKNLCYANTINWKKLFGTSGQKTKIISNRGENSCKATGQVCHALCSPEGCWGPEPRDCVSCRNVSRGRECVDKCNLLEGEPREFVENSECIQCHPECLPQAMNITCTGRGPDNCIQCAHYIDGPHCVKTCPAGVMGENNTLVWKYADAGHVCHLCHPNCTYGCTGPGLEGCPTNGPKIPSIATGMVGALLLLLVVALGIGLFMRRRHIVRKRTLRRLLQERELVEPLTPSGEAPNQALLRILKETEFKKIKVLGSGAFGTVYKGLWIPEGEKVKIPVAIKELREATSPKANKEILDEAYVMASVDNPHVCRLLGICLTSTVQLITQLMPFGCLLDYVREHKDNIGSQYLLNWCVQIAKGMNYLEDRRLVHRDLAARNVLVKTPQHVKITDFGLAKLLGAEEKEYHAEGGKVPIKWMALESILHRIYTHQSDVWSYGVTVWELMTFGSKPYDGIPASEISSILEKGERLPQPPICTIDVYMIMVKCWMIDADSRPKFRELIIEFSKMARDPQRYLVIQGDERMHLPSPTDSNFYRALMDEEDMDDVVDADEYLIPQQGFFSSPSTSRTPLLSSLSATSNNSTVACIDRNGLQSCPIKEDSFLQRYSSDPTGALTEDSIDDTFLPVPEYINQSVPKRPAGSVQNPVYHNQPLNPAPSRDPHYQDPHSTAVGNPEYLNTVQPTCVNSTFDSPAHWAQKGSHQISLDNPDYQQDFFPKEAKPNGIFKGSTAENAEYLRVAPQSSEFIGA

chemical smiles	assayed system	result unit	IC50
C=CC(=O)N1CCC(Oc2nc(Nc3ccc(N4CCN(C(C)=O)CC4)cc3)nc3[nH]cc(-c4cncc(NC)n4)c23)CC1	Epidermal growth factor receptor (Homo sapiens, UniProt P00533)	nM	903
CNc1cncc(-c2c[nH]c3nc(Nc4ccc(N5CCN(C(C)=O)CC5)cc4)nc(OC4CCCCC4)c23)n1	Epidermal growth factor receptor (Homo sapiens, UniProt P00533)	nM	654
C=CC(=O)N1CCC(Oc2nc(Nc3ccc(N4CCOCC4)cc3)nc3[nH]cc(-c4cncc(NC)n4)c23)CC1	Epidermal growth factor receptor (Homo sapiens, UniProt P00533)	nM	1260

* * *

biological target: Epidermal growth factor receptor (Homo sapiens, UniProt P00533); experiment: Inhibition of recombinant human N-terminal GST-tagged EGFR kinase domain (696 to end residues) expressed in baculovirus infected Sf21 insect cells using STK as substrate by HTRF assay

chemical smiles	IC50
C#CCCN1CCN(c2ccc(Nc3nc(OC4CCN(C(=O)C=C)CC4)c4c(-c5cncc(NC)n5)c[nH]c4n3)cc2)CC1	> 3 µM
C=CC(=O)N1CCC(Oc2nc(Nc3ccc(N4CCOCC4)cc3)nc3[nH]cc(-c4cccc(NC)n4)c23)CC1	> 3 µM
C=CC(=O)N1CCC[C@@H](Oc2nc(Nc3ccc(N4CCOCC4)cc3)nc3[nH]cc(-c4cncc(NC)n4)c23)C1	0.138 µM
C=CC(=O)N1CCC(Oc2nc(Nc3ccc(N4CCOCC4)cc3)nc3[nH]cc(-c4cncc(NC)c4)c23)CC1	> 3 µM

* * *

molecular target: Tyrosine-protein kinase BTK (Homo sapiens, UniProt Q06187); experiment: Inhibition of recombinant human full-length N-terminal His6-tagged BTK expressed in baculovirus infected Sf21 insect cells using STK substrate by HTRF assay
Sequence (Q06187 whole entry): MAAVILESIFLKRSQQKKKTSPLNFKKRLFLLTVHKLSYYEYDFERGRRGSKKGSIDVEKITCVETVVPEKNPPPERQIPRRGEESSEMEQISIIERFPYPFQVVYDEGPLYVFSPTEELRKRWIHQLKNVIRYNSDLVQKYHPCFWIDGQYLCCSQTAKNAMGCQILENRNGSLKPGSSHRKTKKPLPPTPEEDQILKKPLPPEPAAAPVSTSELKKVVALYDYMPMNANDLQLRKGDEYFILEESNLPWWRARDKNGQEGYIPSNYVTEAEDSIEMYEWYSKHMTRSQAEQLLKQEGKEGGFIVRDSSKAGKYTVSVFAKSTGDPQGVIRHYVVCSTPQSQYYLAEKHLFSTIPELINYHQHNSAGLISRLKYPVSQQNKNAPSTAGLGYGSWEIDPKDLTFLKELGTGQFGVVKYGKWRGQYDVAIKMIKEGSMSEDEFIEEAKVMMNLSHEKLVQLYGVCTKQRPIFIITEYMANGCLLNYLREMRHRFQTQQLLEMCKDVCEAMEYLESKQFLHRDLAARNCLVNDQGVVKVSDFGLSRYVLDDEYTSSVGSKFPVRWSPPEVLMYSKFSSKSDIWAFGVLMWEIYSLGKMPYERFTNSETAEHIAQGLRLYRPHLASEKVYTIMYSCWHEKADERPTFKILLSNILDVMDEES
pIC50: −log10 of the molar value.
Listed here are compounds together with their documented pIC50.

chemical smiles	pIC50
C=CC(=O)N1CCC(Oc2nc(Nc3ccc(N4CCOCC4)cc3)nc3[nH]cc(-c4cccc(NC)n4)c23)CC1	< 5.00
C=CC(=O)N1CCC[C@H](Oc2nc(Nc3ccc(N4CCN(C(C)=O)CC4)cc3)nc3[nH]cc(-c4cncc(NC)n4)c23)C1	< 5.00
C#CCCN1CCN(c2ccc(Nc3nc(OC4CCN(C(=O)C=C)CC4)c4c(-c5cncc(NC)n5)c[nH]c4n3)cc2)CC1	< 5.52
